B1: PLD5 (parent)
chain: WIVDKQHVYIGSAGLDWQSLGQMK

Variants of: B1
Experiment: protein stability index of a GFP-peptide fusion (GPS, HEK-293T) (PSI 1-6); higher = more stable;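 further: lentivirally expressed fusions sorted by FACS into six bins by GFP to DsRed ratio, PSI derived from sequencing read proportions per bin multiplied by bin number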
Conditions: c terminus: a fixed tail appended
assay_readout: protein stability index
// no unit string in output, number only

Example cases with answers are listed next.
protein stability index for "H7Q" ?
1.96

protein stability index for "H7D" ?
1.98

protein stability index for "Q18V" ?
2.73

protein stability index for "Q18M" ?
3.07

protein stability index for "G14C" ?
2.19

***
protein stability index for "L15F" ?
1.14

protein stability index for "A13Q" ?
1.95

protein stability index for "Y9R" ?
1.41
